test: NCI Yeast Anticancer Drug Screen. Data for the rad50EPP+ strain (AID 151); details: S. cerevisiae rad50 mutant strain, at 1.2 µM, active compounds read high
About 79,000 compounds went through this panel and 15% of them were active in at least one assay; those are over-represented in the sample as a whole.
Hi, to clarify the labels: Satisfied covers growth inhibition from 10% upward, Not satisfied covers anything below 10%.

Example cases with answers are listed next.
- molecule: "NNc1ccccc1-c1nc2ccccc2[nH]1"
  label: "Not satisfied"
- molecule: "O=C(Nc1cccs1)c1ccccc1"
  label: "Not satisfied"
- molecule: "COc1cc([N+](=O)[O-])c2ncccc2c1Br"
  label: "Satisfied"
- molecule: "CC(C)OP(=O)(OC(C)C)/C(Cl)=N/Nc1ccc([N+](=O)[O-])cc1"
  label: "Satisfied"
- molecule: "COc1cc2c(cc1OC)[C@@H](Nc1ccc(C#N)cc1)C1COC(=O)[C@@H]1C2c1cc(OC)c(O)c(OC)c1 (stereo not given in full)"
  label: "Not satisfied"

API: above_or_equal(metric=growth inhibition, cutoff=10%) for item COc1cc(C(=O)C=O)cc(OC)c1OC
Not satisfied
